- STUDY TARGET: UniProt P05121
- ASSAY PROTOCOL: PAI-1 inhibition in the S2251 chromogenic substrate assay (PAI functional assay)
- Format: biochemical
- CONDITION SUMMARY: 25 μm; Table 1, first part; unit assumed
MEASURE: INHIBITION OF PAI-1 (degree of inhibition) (%)

{"columns": ["STRUCTURE SMILES STRING", "RESULT UNIT", "OBSERVED MEASUREMENT"],
 "data": [
  ["COc1ccc(/C=c2\\[nH]c(=O)/c(=C/c3cccs3)[nH]c2=O)cc1", "%", 28]
]}

1. CN(C)CCCOc1ccc(/C=c2\[nH]c(=O)/c(=C/c3ccc(Cn4ccnc4)cc3)[nH]c2=O)cc1
2. COc1ccc(/C=c2\[nH]c(=O)/c(=C/c3cccn3C(=O)OC(C)(C)C)[nH]c2=O)cc1
Would you let me know which has the greater INHIBITION OF PAI-1 (degree of inhibition) value, 1 or 2 ? Give the label of your selection.
2
(2: 45%, 1: 0%)

1. CN1CCC(N(C)Cc2ccc(/C=c3\[nH]c(=O)/c(=C/c4ccccc4)[nH]c3=O)cc2)CC1
2. O=c1[nH]/c(=C\c2c(Cl)cccc2Cl)c(=O)[nH]/c1=C\c1ccoc1
3. O=c1[nH]/c(=C\c2ccc(-n3ccnc3)cc2)c(=O)[nH]/c1=C\c1ccccc1
4. O=c1[nH]/c(=C\c2ccccc2)c(=O)[nH]/c1=C\C=Cc1ccc([N+](=O)[O-])cc1
// sort entries: INHIBITION OF PAI-1 (degree of inhibition), high to low Give the labels in the order requested.
3, 4, 2, 1
(3: 79%, 4: 20%, 2: 9%, 1: 0%)

A. O=c1[nH]/c(=C\c2ccc3c(c2)OCO3)c(=O)[nH]/c1=C\c1ccccc1
B. COc1ccc(/C=c2\[nH]c(=O)/c(=C/c3cc4ccccc4[nH]3)[nH]c2=O)cc1
C. Cc1[nH]cnc1/C=c1\[nH]c(=O)/c(=C/c2ccccc2)[nH]c1=O
// sort entries: INHIBITION OF PAI-1 (degree of inhibition), high to low Give the labels in the order requested.
A, C, B

----------
- STUDY TARGET: PAI-1 (Homo sapiens, UniProt P05121)
- Sequence (P05121 24-402): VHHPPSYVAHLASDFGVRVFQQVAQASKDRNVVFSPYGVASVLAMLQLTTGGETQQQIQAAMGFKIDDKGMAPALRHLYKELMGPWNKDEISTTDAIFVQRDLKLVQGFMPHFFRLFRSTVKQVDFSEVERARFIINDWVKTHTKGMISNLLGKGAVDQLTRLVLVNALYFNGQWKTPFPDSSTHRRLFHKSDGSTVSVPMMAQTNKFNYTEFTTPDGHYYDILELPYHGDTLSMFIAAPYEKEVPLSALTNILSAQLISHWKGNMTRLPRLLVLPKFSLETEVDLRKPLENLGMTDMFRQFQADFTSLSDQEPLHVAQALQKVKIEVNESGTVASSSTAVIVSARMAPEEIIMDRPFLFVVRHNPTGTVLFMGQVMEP
- ASSAY PROTOCOL: PAI-1 inhibition in the S2251 chromogenic substrate assay (PAI functional assay)
- Assay type: biochemical
- CONDITION SUMMARY: 12.5 μm; Table 1, first part; unit assumed
MEASURE: INHIBITION OF PAI-1 (degree of inhibition) (%)

{"columns": ["STRUCTURE SMILES STRING", "OBSERVED MEASUREMENT"],
 "data": [
  ["O=c1[nH]/c(=C\\c2c[nH]cn2)c(=O)[nH]/c1=C\\c1ccccc1", 6],
  ["COc1ccc(/C=c2\\[nH]c(=O)/c(=C/c3cn(S(C)(=O)=O)c4ccccc34)[nH]c2=O)cc1", 0]
]}

P. CN(C)CCCOc1ccc(/C=c2\[nH]c(=O)/c(=C/c3ccc(-n4ccnc4)cc3)[nH]c2=O)cc1
Q. CC(=O)Nc1ccc(/C=c2\[nH]c(=O)/c(=C/C=Cc3ccccc3)[nH]c2=O)cc1
Would you let me know which has the greater INHIBITION OF PAI-1 (degree of inhibition) value, P or Q ? Give the label of your selection.
Q
(Q: 12%, P: 0%)

----------
- STUDY TARGET: PAI-1 (Homo sapiens)
- ASSAY PROTOCOL: PAI-1 inhibition in the S2251 chromogenic substrate assay (PAI functional assay)
- Type: biochemical
- CONDITION SUMMARY: 6.25 μm; Table 1, first part; unit assumed
MEASURE: INHIBITION OF PAI-1 (degree of inhibition) (%)

1. COc1ccc(/C=c2\[nH]c(=O)/c(=C/c3cn(C(=O)OC(C)(C)C)c4ccccc34)[nH]c2=O)cc1 [Compound 1506]
2. O=c1[nH]/c(=C\c2ccc(Cn3ccnc3)cc2)c(=O)[nH]/c1=C\c1ccccc1 [Compound 1929]
3. O=c1[nH]/c(=C\c2c(Cl)cccc2Cl)c(=O)[nH]/c1=C\c1ccoc1 [Compound 1542]
Order by INHIBITION OF PAI-1 (degree of inhibition), smallest first, the items presented above. Give the labels in the order requested.
3, 1, 2
(3: 1%, 1: 2%, 2: 16%)

I. COc1ccc(/C=c2\[nH]c(=O)/c(=C/c3cccn3C(=O)OC(C)(C)C)[nH]c2=O)cc1 [Compound 1507]
II. CC(C)(C)OC(=O)n1cccc1/C=c1\[nH]c(=O)/c(=C/c2ccccc2)[nH]c1=O [Compound 1470]
Would you let me know which has the greater INHIBITION OF PAI-1 (degree of inhibition) value, I or II ? Give the label of your selection.
I

a. CC(=O)Nc1ccc(/C=c2\[nH]c(=O)/c(=C/C=Cc3ccccc3)[nH]c2=O)cc1 [Compound 1676]
b. CC(C)(C)OC(=O)n1cc(/C=c2\[nH]c(=O)/c(=C/c3ccccc3)[nH]c2=O)c2ccccc21 [Compound 1471]
Would you let me know which has the greater INHIBITION OF PAI-1 (degree of inhibition) value, a or b ? Give the label of your selection.
a

----------
Measured IC50 values are reported for all entries that follow.
- STUDY TARGET: PAI-1 (Homo sapiens)
- ASSAY PROTOCOL: PAI-1 inhibition in the S2251 chromogenic substrate assay (PAI functional assay)
- Assay type: biochemical
- CONDITION SUMMARY: PAI-1, S2251 assay; Table 2

{"columns": ["COMPOUND", "IC50"],
 "data": [
  ["CC(=O)Nc1ccc(/C=c2\\[nH]c(=O)/c(=C/C=Cc3ccccc3)[nH]c2=O)cc1 [Compound 1676]", "12 to 25 µM"],
  ["CC(=O)Nc1ccc(/C=c2\\[nH]c(=O)/c(=C/C3CCCCC3)[nH]c2=O)cc1 [Compound 1672]", "50 to 100 µM"],
  ["COc1ccc(/C=c2\\[nH]c(=O)/c(=C/c3cccs3)[nH]c2=O)cc1 [Compound 1474]", "25 to 50 µM"]
]}

Then this compound:
For COc1ccc(/C=c2\[nH]c(=O)/c(=C/c3cn(C(=O)OC(C)(C)C)c4ccccc34)[nH]c2=O)cc1 [Compound 1506] , what is its reported IC50?
25 to 50 µM

----------
- STUDY TARGET: PAI-1 (Homo sapiens, UniProt P05121)
- ASSAY PROTOCOL: PAI-1 inhibition in the S2251 chromogenic substrate assay (PAI functional assay)
- Assay type: biochemical
- CONDITION SUMMARY: 50 μm; Table 1, first part; unit assumed
MEASURE: INHIBITION OF PAI-1 (degree of inhibition) (%)

Consider the worked cases shown below.
{"columns": ["STRUCTURE SMILES STRING", "STUDY TARGET", "RESULT UNIT", "OBSERVED MEASUREMENT"],
 "data": [
  ["COc1ccc(/C=c2\\[nH]c(=O)/c(=C/c3cccs3)[nH]c2=O)cc1", "PAI-1 (Homo sapiens, UniProt P05121)", "%", 52],
  ["O=c1[nH]/c(=C\\c2ccc(OCCn3ccnc3)cc2)c(=O)[nH]/c1=C\\c1ccccc1", "PAI-1 (Homo sapiens, UniProt P05121)", "%", 36],
  ["Cc1[nH]cnc1/C=c1\\[nH]c(=O)/c(=C/c2ccccc2)[nH]c1=O", "PAI-1 (Homo sapiens, UniProt P05121)", "%", 39],
  ["COc1ccc(/C=c2\\[nH]c(=O)/c(=C/c3ccc(OC(=O)CN4C(=O)c5ccccc5C4=O)cc3)[nH]c2=O)cc1", "PAI-1 (Homo sapiens, UniProt P05121)", "%", 40],
  ["CC(C)(C)OC(=O)n1cc(/C=c2\\[nH]c(=O)/c(=C/c3c(Cl)cccc3Cl)[nH]c2=O)c2ccccc21", "PAI-1 (Homo sapiens, UniProt P05121)", "%", 48]
]}

I. CN(C)c1ccc(C=C/C=c2\[nH]c(=O)/c(=C/c3ccccc3)[nH]c2=O)cc1
II. COc1ccc(/C=c2\[nH]c(=O)/c(=C/c3ccc4c(c3)OCO4)[nH]c2=O)cc1
I'm curious whether I or II has the smaller INHIBITION OF PAI-1 (degree of inhibition) number. Which is it? Give the label of your selection.
I
(I: 43%, II: 76%)

----------
- STUDY TARGET: PAI-1 (Homo sapiens, UniProt P05121)
- ASSAY PROTOCOL: PAI-1 inhibition in the S2251 chromogenic substrate assay (PAI functional assay)
- Assay type: biochemical
- CONDITION SUMMARY: PAI-1, S2251 assay; Table 1, second part
pIC50: −log10 of the molar value. Where a name gives a salt, the structure may show the parent alone.
MEASURE: pIC50

{"columns": ["COMPOUND", "OBSERVED MEASUREMENT"],
 "data": [
  ["O=C(NCCN1CCc2ccccc2C1)c1ccc(/C=c2\\[nH]c(=O)/c(=C/c3ccccc3)[nH]c2=O)cc1 [Compound 5391.HCl]", 5.46]
]}

I. CN(C)CCCOc1ccc(/C=c2\[nH]c(=O)/c(=C/c3ccc4ccccc4c3)[nH]c2=O)cc1 [Compound 5188]
II. COc1cc2c(cc1OC)CN(CCc1ccc(NC(=O)c3ccc(/C=c4\[nH]c(=O)/c(=C/c5ccccc5)[nH]c4=O)cc3)cc1)CC2 [Compound 5393.HCl]
I'm curious whether I or II has the smaller pIC50 number. Which is it? Give the label of your selection.
II
